Molecular target: HNF4alpha2 (COS-7 nuclear extract) (Homo sapiens, UniProt P41235 1-474)
Sequence: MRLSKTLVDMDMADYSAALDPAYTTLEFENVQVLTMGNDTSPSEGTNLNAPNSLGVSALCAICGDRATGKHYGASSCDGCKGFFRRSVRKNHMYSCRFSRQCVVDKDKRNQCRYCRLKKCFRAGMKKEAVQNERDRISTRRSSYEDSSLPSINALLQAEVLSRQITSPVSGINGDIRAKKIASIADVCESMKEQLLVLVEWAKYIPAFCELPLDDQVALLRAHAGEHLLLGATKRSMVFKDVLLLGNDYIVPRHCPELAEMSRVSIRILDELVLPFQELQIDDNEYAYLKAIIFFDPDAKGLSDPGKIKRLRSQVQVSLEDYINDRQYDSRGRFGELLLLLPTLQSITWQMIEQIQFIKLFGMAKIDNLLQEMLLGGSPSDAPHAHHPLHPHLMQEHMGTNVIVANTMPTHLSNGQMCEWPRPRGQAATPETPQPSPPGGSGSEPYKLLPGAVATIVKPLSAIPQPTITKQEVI
Experiment: protein-binding microarray; COS-7 nuclear extract on double-stranded Agilent 4x180k PBM; binding buffer, salt, pH and temperature not given in the material; high values mean tight binding
Settings: chain copies: 2; label: 3' end of strand 1 on the slide; dsDNA, one strand shown
In all, about 18,000 sequences were measured (“log2 normalized intensity”: median about 0.39, highest 2% from about 6.6 on). The sample as a whole holds a higher share of the highest values than the screen did.
value.kind: binding signal (log2 normalized intensity)

>>> print(df.to_string())
                            ordered_residues  obs_value
 0  GGTCAACACAATCTGATAGTTGATTGATTGGCCTAGGGAGATTAGAGTATCGGTCGA      0.627
 1  AATTTTCTCTGTATACTTGTCTTATCAGCAGCCTAGGGAGATTAGAGTATCGGTCGA      0.598
 2  CACCCCCATCTATGCACTCTCACCTTGGGGGCCTAGGGAGATTAGAGTATCGGTCGA      0.591
 3  CCCTCAGCAACTGCAAGGCTGACCCGTGAAGCCTAGGGAGATTAGAGTATCGGTCGA        1.4
 4  GAGTAGGTTCTCAGCTGACATTGGTGGAATGCCTAGGGAGATTAGAGTATCGGTCGA       1.36
 5  TAACGGTGAGGGAGGAGACTTTGACCTCTGGCCTAGGGAGATTAGAGTATCGGTCGA       6.61
 6  ATGCTATCTCCCAGTTCTTTTGACCTTTGCGCCTAGGGAGATTAGAGTATCGGTCGA       7.68
 7  TTAGCTATCAGTGTTGACCTCTGGACCTCAGCCTAGGGAGATTAGAGTATCGGTCGA       6.97
 8  CCTCAATGCTATCTCCCAGTTCTTTTGACCGCCTAGGGAGATTAGAGTATCGGTCGA       2.52
 9  ACCTTTGCCTTCTTGACATCTCTCTCTGCAGCCTAGGGAGATTAGAGTATCGGTCGA       1.17
10  ATCTCCCAGTTCTTTTGACCTTTGCCTCATGCCTAGGGAGATTAGAGTATCGGTCGA       7.95
11  GATGTTTAGCTATCAGTGTTGACCTCTGGAGCCTAGGGAGATTAGAGTATCGGTCGA       5.32
12  TCCTTTTGACCACAGTTATCTCCCCAGCTTGCCTAGGGAGATTAGAGTATCGGTCGA       2.47
13  CTGACAAGTATCTCGGTCAAACCTTTGACCGCCTAGGGAGATTAGAGTATCGGTCGA       5.77
14  TCCCTTCCCCCCTCCTCATTGAGAGTTTTAGCCTAGGGAGATTAGAGTATCGGTCGA        4.2
15  CAGCAATCACCTACCCCCAGATTCTCTGTTGCCTAGGGAGATTAGAGTATCGGTCGA       2.35
16  CGGGTCAGCAGGGCACCGCCTCCACACCCCGCCTAGGGAGATTAGAGTATCGGTCGA       1.59
17  GTGACCTTTGACCTCTGGCCTTTGCAGTTAGCCTAGGGAGATTAGAGTATCGGTCGA       8.21
18  ATATTTTCTTTGTGCTATTTTTGGCTTGGTGCCTAGGGAGATTAGAGTATCGGTCGA       2.13

====

Molecular target: HNF4alpha2 (COS-7 nuclear extract) (Homo sapiens, UniProt P41235 1-474)
Sequence: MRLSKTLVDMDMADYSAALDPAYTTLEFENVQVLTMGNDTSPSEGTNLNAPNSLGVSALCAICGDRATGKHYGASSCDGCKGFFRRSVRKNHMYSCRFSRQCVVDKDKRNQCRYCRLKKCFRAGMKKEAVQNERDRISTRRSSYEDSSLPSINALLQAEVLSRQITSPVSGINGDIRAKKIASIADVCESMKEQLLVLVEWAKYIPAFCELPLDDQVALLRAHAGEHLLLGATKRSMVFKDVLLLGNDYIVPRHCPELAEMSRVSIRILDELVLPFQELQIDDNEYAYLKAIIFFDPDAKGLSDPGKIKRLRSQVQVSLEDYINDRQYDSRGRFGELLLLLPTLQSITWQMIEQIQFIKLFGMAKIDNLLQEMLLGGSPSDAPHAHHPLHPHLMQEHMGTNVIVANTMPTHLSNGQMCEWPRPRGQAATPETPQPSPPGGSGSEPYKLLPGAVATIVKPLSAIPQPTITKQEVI
Assay: protein-binding microarray; COS-7 nuclear extract on double-stranded Agilent 4x180k PBM; binding buffer, salt, pH and temperature not given in the material; high values mean tight binding
Details: chain copies: 2; label: 3' end of strand 1 on the slide; dsDNA, one strand shown
The full ranking holds about 18,000 sequences; the median of “log2 normalized intensity” is about 0.39, and the highest 2% start at about 6.6. The entries come from a sample that favours the highest values as a whole.
value.kind: binding signal (log2 normalized intensity)

                           ordered_residues      value_kind  obs_value
0  CACACACACACAGCATTCCATTCATTTTAGGCCTAGGGAGATTAGAGTATCGGTCGA  binding signal     -0.727
1  GACCTTTGAACACCACAAGTTTGAACTGCAGCCTAGGGAGATTAGAGTATCGGTCGA  binding signal       5.05
2  ATCCCCTCCTGGACTTTGGTCTCATGGGCCGCCTAGGGAGATTAGAGTATCGGTCGA  binding signal        6.4
3  AACTACAGTTGACCTTTGAACACCACAAGTGCCTAGGGAGATTAGAGTATCGGTCGA  binding signal       7.56
4  CCTCTGCACCCCACCAAGGACTGGACCACCGCCTAGGGAGATTAGAGTATCGGTCGA  binding signal       2.34

====

Biological target: HNF4alpha2 (COS-7 nuclear extract) (Homo sapiens, UniProt P41235 1-474)
Sequence: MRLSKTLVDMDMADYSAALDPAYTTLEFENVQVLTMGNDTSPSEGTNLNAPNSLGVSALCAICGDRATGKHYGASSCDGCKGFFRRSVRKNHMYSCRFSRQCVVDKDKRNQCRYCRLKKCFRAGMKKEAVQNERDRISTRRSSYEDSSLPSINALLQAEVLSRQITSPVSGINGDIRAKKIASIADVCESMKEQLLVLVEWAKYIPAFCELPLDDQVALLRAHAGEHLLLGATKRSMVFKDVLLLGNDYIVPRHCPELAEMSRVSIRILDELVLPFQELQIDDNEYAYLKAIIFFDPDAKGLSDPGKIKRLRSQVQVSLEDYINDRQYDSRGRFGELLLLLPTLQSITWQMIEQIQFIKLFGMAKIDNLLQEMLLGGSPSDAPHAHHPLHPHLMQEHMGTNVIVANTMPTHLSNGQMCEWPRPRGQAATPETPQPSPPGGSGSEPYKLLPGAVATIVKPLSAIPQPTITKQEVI
Experiment: protein-binding microarray; COS-7 nuclear extract on double-stranded Agilent 4x180k PBM; binding buffer, salt, pH and temperature not given in the material; high values mean tight binding
Details: chain copies: 2; label: 3' end of strand 1 on the slide; dsDNA, one strand shown
Whole data set: some 18,000 sequences, median “log2 normalized intensity” near 0.39, cut for the highest 2% near 6.6. Only a selection was taken, and the highest values are over-represented in it overall.
Grouping by measured binding signal is done with the following cut points: b0 (below 1 log2 normalized intensity), b1 (1 log2 normalized intensity to below 5 log2 normalized intensity), b2 (5 log2 normalized intensity or more)

>>> df
                            ordered_residues  assigned_category
 0  CTGTCGTCCCAGGGCAAAGGTCACCAGCTAGCCTAGGGAGATTAGAGTATCGGTCGA                 b2
 1  TGCCCCTTCACATATTTTGAAAGAAAGAGAGCCTAGGGAGATTAGAGTATCGGTCGA                 b1
 2  AAGAGATAAAAGAGAAGATAATGGATTGGGGCCTAGGGAGATTAGAGTATCGGTCGA                 b0
 3  CAAGAATACGGATTCTTAAGGGCAAAGGTTGCCTAGGGAGATTAGAGTATCGGTCGA                 b2
 4  TAACTATGGTCACGCGGCCAAAATGTTCAGGCCTAGGGAGATTAGAGTATCGGTCGA                 b0
 5  GAGAGAGAGAGAGGTGGGCAAAGGTCTCAAGCCTAGGGAGATTAGAGTATCGGTCGA                 b1
 6  GGACTTCGAATGGTATGCTAGAGTACTTGGGCCTAGGGAGATTAGAGTATCGGTCGA                 b1
 7  GTCCCAGGGCAAAGGTCACCAGCTAAGCTGGCCTAGGGAGATTAGAGTATCGGTCGA                 b2
 8  AATCATGGGCCCACAGATGATCAAAGGTCAGCCTAGGGAGATTAGAGTATCGGTCGA                 b2
 9  TCGAATGGTATGCTAGAGTACTTGGACTTTGCCTAGGGAGATTAGAGTATCGGTCGA                 b2
10  TCTTTGTTCAGAGGGCATGTTGAGTGGAATGCCTAGGGAGATTAGAGTATCGGTCGA                 b1
11  CAACCAAGTCCATCTGTATTGCCTCCTTTGGCCTAGGGAGATTAGAGTATCGGTCGA                 b1
12  TGCTAGAGTACTTGGACTTTAACCTTTAGAGCCTAGGGAGATTAGAGTATCGGTCGA                 b2
13  TCCCACTAGGTGGCGCTGTTGACCTTGAAAGCCTAGGGAGATTAGAGTATCGGTCGA                 b1
14  TGGGCCCACAGATGATCAAAGGTCAGTCTTGCCTAGGGAGATTAGAGTATCGGTCGA                 b2
15  ACAGCTAGTCTAGACTTTGCTTTCTTGGAGGCCTAGGGAGATTAGAGTATCGGTCGA                 b1
16  TCTTTAGGCCAAACAAAAATATGGACTTTGGCCTAGGGAGATTAGAGTATCGGTCGA                 b2
17  AGGCCAAACAAAAATATGGACTTTGGAATTGCCTAGGGAGATTAGAGTATCGGTCGA                 b2
18  AGAGCAATCATGGGCCCACAGATGATCAAAGCCTAGGGAGATTAGAGTATCGGTCGA                 b0
19  AGCACACCTTTTTTTCATGCAAATTTCCGTGCCTAGGGAGATTAGAGTATCGGTCGA                 b0
20  CCAGGTTCCAAAGGTCACCCGTATTCCTTAGCCTAGGGAGATTAGAGTATCGGTCGA                 b2
21  AGATCCGAAGTCTAGGACGTTATCAGCAGGGCCTAGGGAGATTAGAGTATCGGTCGA                 b0
22  GGGCAAATCTGAGGTCAAAGCTGTCAGAGAGCCTAGGGAGATTAGAGTATCGGTCGA                 b0
23  CGAGCATGGCCGCTCCGCGAGGTGAGCCATGCCTAGGGAGATTAGAGTATCGGTCGA                 b0
24  GAGTCTTAGGGAGGGGCCAGGACAAAGGTCGCCTAGGGAGATTAGAGTATCGGTCGA                 b2
25  AACAAAAAGGGCAAAGGTCAGCTCATTCCCGCCTAGGGAGATTAGAGTATCGGTCGA                 b2
26  GCAAAGGTCAGCTCATTCCCTAGGGCTCGGGCCTAGGGAGATTAGAGTATCGGTCGA                 b0
27  ATTTGGACTTTTACTCTTAGAGATAATGGGGCCTAGGGAGATTAGAGTATCGGTCGA                 b1
28  GCCTGTCAGGCCCAGAAACACTGAACCTTGGCCTAGGGAGATTAGAGTATCGGTCGA                 b1
29  CCACAGAATCGCCCCACCCTGCCTGGGTAGGCCTAGGGAGATTAGAGTATCGGTCGA                 b1
30  AGGGTGTTGTGGAATGTGCTTGGACCTGCTGCCTAGGGAGATTAGAGTATCGGTCGA                 b1
31  GCTTTTGGAAGGACTTCGAATGGTATGCTAGCCTAGGGAGATTAGAGTATCGGTCGA                 b0

Where do these numbers come from? They come from paper PMC10726135.
